# tested system: UniProtKB P63000
# test summary: Ras GTP Binding Domain Inhibition Assay, Rac-1
# reported conditions: without SOS, read-out: Rac-1: % inh.
property measured: inhibition at 20 µM

1. COc1cc(-c2sc3nc(-c4nccn4C)nc(N[C@@H]4CC[C@@H](OC)C4)c3c2-c2ccccc2)ccn1 (racemic) ... 46 to 75%
2. COc1cc(Nc2nc(-c3nccn3C)nc3sc(-c4ccn(C(C)C)n4)c(C)c23)ncn1 ... 46 to 75%
3. COCCCOc1nc(-c2nccn2C)nc2sc(-c3ccn(C(C)C)n3)c(-c3ccccc3)c12 ... 0%
4. COc1cc(Cn2c(-c3nccn3C)nc3sc(-c4ccn(C(C)C)n4)c(C)c3c2=O)ncn1 ... 0%
5. COCCNc1nc(-c2nccn2C)nc2sc(-c3ccccc3)c(-c3ccccc3)c12 ... 76 to 100%
6. COCCn1ccnc1-c1nc(N[C@H]2C[C@@H](OC)C2)c2c(-c3ccccc3)c(-c3ccn(C)n3)sc2n1 ... 76 to 100%
7. COCCOCCNc1nc(-c2nccn2C)nc2sc(-c3ccn(C(C)C)n3)c(C)c12 ... 76 to 100%
8. COCCCCOc1nc(-c2nccn2C)nc2sc(-c3ccn(C(C)C)n3)c(C)c12 ... 0%
9. COc1cccc(-c2sc3nc(-c4nccn4C)nc(NC4CCC(OC)C4)c3c2C)c1F (racemic) ... 46 to 75%
10. COCCCOc1nc(-c2nccn2C)nc2sc(-c3ccn(C(C)C)n3)c(C)c12 ... 0%
11. CO[C@H]1CC[C@@H](Nc2nc(-c3nccn3C)nc3sc(-c4ccn(C(C)C)n4)c(C)c23)C1 (racemic) ... 46 to 75%
12. COc1cc(-c2sc3nc(-c4nccn4C)nc(N[C@@H]4CC[C@H](OC)C4)c3c2-c2ccccc2)ccn1 (racemic) ... 0%
13. CO[C@H]1C[C@H](CNc2nc(-c3nccn3C)nc3sc(-c4ccn(C(C)C)n4)c(C)c23)C1 ... 26 to 45%
14. COc1nccc(-c2sc3nc(-c4nccn4C)nc(N[C@H]4C[C@H](OC)C4)c3c2-c2ccccc2)c1F ... 46 to 75%
15. Cc1c(-c2ccn(C(C)C)n2)sc2nc(-c3nccn3C)nc(NCCN3CCS(=O)(=O)CC3)c12 ... 46 to 75%
16. COc1cc(-c2sc3nc(-c4nccn4C)nc(N[C@H]4C[C@H](OC)C4)c3c2-c2ccccc2)ccn1 ... 46 to 75%
17. COCCCNc1nc(-c2nccn2C)nc2sc(-c3ccccc3)c(-c3ccccc3)c12 ... 46 to 75%
18. COCCO[C@H]1CC[C@@H](Nc2nc(-c3nccn3C)nc3sc(-c4ccn(C(C)C)n4)c(C)c23)C1 (racemic) ... 46 to 75%
19. COCCCCn1c(-c2nccn2C)nc2sc(-c3ccn(C(C)C)n3)c(C)c2c1=O ... 0%
20. Cc1c(-c2ccn(C(C)C)n2)sc2nc(-c3nccn3C)nc(NCCN3CCOCC3)c12 ... 76 to 100%
21. CO[C@@H]1CC[C@H](Nc2nc(-c3nccn3C)nc3sc(-c4ccn(C(C)C)n4)c(-c4ccccc4)c23)C1 (single isomer, unassigned) ... 1 to 25%
22. COC1CCN(c2nc(-c3nccn3C)nc3sc(-c4ccn(C)n4)c(-c4ccccc4)c23)CC1 ... 26 to 45%
23. COc1cccc(-c2sc3nc(-c4nccn4C)nc(N[C@H]4C[C@H](OC)C4)c3c2-c2ccccc2)c1F ... 26 to 45%
24. COCCn1ccc(-c2sc3nc(-c4nccn4C)nc(N[C@@H]4CC[C@H](OC)C4)c3c2C)n1 (racemic) ... 26 to 45%
25. CO[C@H]1CC[C@@H](Nc2nc(-c3nccn3C)nc3sc(-c4ccn(C)n4)c(-c4ccccc4)c23)C1 (racemic) ... 46 to 75%
26. COc1cccc(-c2sc3nc(-c4nccn4C)nc(N[C@@H]4CC[C@@H](OC)C4)c3c2-c2ccccc2)c1F (racemic) ... 1 to 25%
27. COc1cccc(-c2sc3nc(-c4nccn4C)nc(N[C@@H]4CC[C@@H](OC)C4)c3c2C)c1F (racemic) ... 1 to 25%
28. COCCNc1nc(-c2nccn2C)nc2sc(-c3ccccc3)c(-c3ccccc3Cl)c12 ... 26 to 45%
29. COCC1CN(c2nc(-c3nccn3C)nc3sc(-c4ccn(C(C)C)n4)c(C)c23)CCO1 (racemic) ... 76 to 100%

----------
# tested system: KRas wild type (Homo sapiens (Human), UniProt P01116)
# Sequence (P01116 other isoform, or with tags, fused parts or gaps): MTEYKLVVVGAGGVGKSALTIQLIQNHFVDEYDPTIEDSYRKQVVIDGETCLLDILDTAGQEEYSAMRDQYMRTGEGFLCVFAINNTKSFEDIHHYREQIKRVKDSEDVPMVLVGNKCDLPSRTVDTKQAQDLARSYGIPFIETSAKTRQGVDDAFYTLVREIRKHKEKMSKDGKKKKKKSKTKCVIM
# test summary: Ras GTP Binding Domain Inhibition Assay, KRas wild type
# reported conditions: + SOS, read-out: KRas wild type + SOS: % inh.
property measured: inhibition at 20 µM

1. COCC1CN(c2nc(-c3nccn3C)nc3sc(-c4ccn(C(C)C)n4)c(C)c23)CCO1 (racemic) [Compound 15] ... 76 to 100%
2. COc1cc(-c2sc3nc(-c4nccn4C)nc(N[C@@H]4CC[C@@H](OC)C4)c3c2-c2ccccc2)ccn1 (racemic) [Compound 47] ... 76 to 100%
3. COCCCOc1nc(-c2nccn2C)nc2sc(-c3ccn(C(C)C)n3)c(-c3ccccc3)c12 [Compound 37] ... 1 to 25%
4. Cc1c(-c2ccn(C(C)C)n2)sc2nc(-c3nccn3C)nc(NCCN3CCS(=O)(=O)CC3)c12 [Compound 23] ... 76 to 100%
5. CO[C@H]1CC[C@@H](Nc2nc(-c3nccn3C)nc3sc(-c4ccn(C)n4)c(-c4ccccc4)c23)C1 (racemic) [Compound 5] ... 76 to 100%
6. COc1cccc(-c2sc3nc(-c4nccn4C)nc(N[C@@H]4CC[C@@H](OC)C4)c3c2-c2ccccc2)c1F (racemic) [Compound 41] ... 76 to 100%
7. COCCNc1nc(-c2nccn2C)nc2sc(-c3ccccc3)c(-c3ccccc3)c12 [Compound 1] ... 1 to 25%

----------
# tested system: KRas G12D mutant (Homo sapiens (Human), UniProt P01116, G12D)
# Sequence (P01116 other isoform, or with tags, fused parts or gaps G12D): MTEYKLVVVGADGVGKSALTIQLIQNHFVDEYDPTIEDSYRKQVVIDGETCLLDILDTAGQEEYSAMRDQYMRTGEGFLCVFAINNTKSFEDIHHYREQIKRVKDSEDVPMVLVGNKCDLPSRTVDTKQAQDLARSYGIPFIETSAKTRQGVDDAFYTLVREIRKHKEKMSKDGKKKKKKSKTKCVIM
# test summary: Ras GTP Binding Domain Inhibition Assay, KRas G12D mutant
# reported conditions: 20 μM; + SOS; Table 7; read-out: KRas G12D mutant + SOS: % inh.
property measured: inhibition at 20 µM

1) CO[C@H]1C[C@H](CNc2nc(-c3nccn3C)nc3sc(-c4ccn(C(C)C)n4)c(C)c23)C1 ... 46 to 75%
2) COCCNc1nc(-c2nccn2C)nc2sc(-c3cccc(OC)c3Cl)c(-c3ccc(OC)cc3)c12 ... 26 to 45%
3) COCC1(OC)CCN(c2nc(-c3nccn3C)nc3sc(-c4ccn(C(C)C)n4)c(C)c23)C1 (racemic) ... 76 to 100%
4) CO[C@H]1CC[C@@H](Nc2nc(-c3nccn3C)nc3sc(-c4ccn(C(C)C)n4)c(C)c23)C1 (racemic) ... 46 to 75%
5) COCCCn1c(-c2nccn2C)nc2sc(-c3ccn(C(C)C)n3)c(-c3ccccc3)c2c1=O ... 0%
6) COc1cccc(Nc2nc(-c3nccn3C)nc3sc(-c4ccn(C(C)C)n4)c(C)c23)n1 ... 46 to 75%
7) COc1nccc(-c2sc3nc(-c4nccn4C)nc(N[C@H]4C[C@H](OC)C4)c3c2-c2ccccc2)c1F ... 46 to 75%
8) Cc1c(-c2ccn(C(C)C)n2)sc2nc(-c3nccn3C)nc(NCC3COCCN3C)c12 (racemic) ... 76 to 100%
9) COc1cccc(-c2sc3nc(-c4nccn4C)nc(N[C@@H]4CC[C@@H](OC)C4)c3c2C)c1F (racemic) ... 76 to 100%
10) COc1cccc(-c2sc3nc(-c4nccn4C)nc(N[C@H]4C[C@H](OC)C4)c3c2C)c1F ... 76 to 100%
11) COc1cc(-c2sc3nc(-c4nccn4C)nc(N[C@@H]4CC[C@H](OC)C4)c3c2-c2ccccc2)ccn1 (racemic) ... 46 to 75%
12) COCCNc1nc(-c2nccn2C)nc2sc(-c3ccccc3)c(-c3ccccc3)c12 ... 1 to 25%
13) CO[C@H]1CC[C@@H](Nc2nc(-c3nccn3C)nc3sc(-c4ccn(C)n4)c(-c4ccccc4)c23)C1 (racemic) ... 46 to 75%
14) COCCCn1c(-c2nccn2C)nc2sc(-c3ccn(C(C)C)n3)c(C)c2c1=O ... 0%
15) CO[C@H]1CNC[C@@H](Nc2nc(-c3nccn3C)nc3sc(-c4ccn(C(C)C)n4)cc23)C1 ... 76 to 100%

----------
# tested system: KRas G12C mutant (Homo sapiens (Human), UniProt P01116, G12C)
# Sequence (P01116 other isoform, or with tags, fused parts or gaps G12C): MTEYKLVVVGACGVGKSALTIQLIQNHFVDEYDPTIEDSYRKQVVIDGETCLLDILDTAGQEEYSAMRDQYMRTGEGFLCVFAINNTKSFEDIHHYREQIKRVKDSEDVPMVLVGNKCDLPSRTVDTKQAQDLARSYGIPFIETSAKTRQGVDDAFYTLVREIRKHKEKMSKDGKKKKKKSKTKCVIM
# test summary: Ras GTP Binding Domain Inhibition Assay, KRas G12C mutant
# reported conditions: without SOS, read-out: KRas G12C mutant: % inh.
property measured: inhibition at 20 µM

1) COCCCOc1nc(-c2nccn2C)nc2sc(-c3ccn(C(C)C)n3)c(C)c12 ... 46 to 75%
2) COCCCCn1c(-c2nccn2C)nc2sc(-c3ccn(C(C)C)n3)c(C)c2c1=O ... 0%
3) COc1cccc(-c2sc3nc(-c4nccn4C)nc(N[C@@H]4CC[C@@H](OC)C4)c3c2-c2ccccc2)c1F (racemic) ... 26 to 45%
4) COCCCn1c(-c2nccn2C)nc2sc(-c3ccn(C(C)C)n3)c(-c3ccccc3)c2c1=O ... 0%
5) COc1cccc(Nc2nc(-c3nccn3C)nc3sc(-c4ccn(C(C)C)n4)c(C)c23)c1 ... 46 to 75%
6) COC1CCCN(c2nc(-c3nccn3C)nc3sc(-c4ccn(C(C)C)n4)c(C)c23)C1 (racemic) ... 26 to 45%
7) CO[C@H]1C[C@H](CNc2nc(-c3nccn3C)nc3sc(-c4ccn(C(C)C)n4)c(C)c23)C1 ... 46 to 75%
8) Cc1c(-c2ccn(C(C)C)n2)sc2nc(-c3nccn3C)nc(NCC3COCCN3C)c12 (racemic) ... 46 to 75%
9) COCCNc1nc(-c2nccn2C)nc2sc(-c3cccc(OC)c3Cl)c(-c3ccc(OC)cc3)c12 ... 26 to 45%
10) COCCn1ccc(-c2sc3nc(-c4nccn4C)nc(N[C@@H]4CC[C@H](OC)C4)c3c2C)n1 (racemic) ... 76 to 100%
11) COc1cccc(-c2sc3nc(-c4nccn4C)nc(N[C@H]4C[C@H](OC)C4)c3c2C)c1F ... 46 to 75%
12) COCCCn1c(-c2nccn2C)nc2sc(-c3ccn(C(C)C)n3)c(C)c2c1=O ... 0%
13) COCCOCCNc1nc(-c2nccn2C)nc2sc(-c3ccn(C(C)C)n3)c(C)c12 ... 46 to 75%
14) COC1CCN(c2nc(-c3nccn3C)nc3sc(-c4ccn(C)n4)c(-c4ccccc4)c23)CC1 ... 26 to 45%
15) COCCNc1nc(-c2nccn2C)nc2sc(-c3ccccc3)c(-c3ccccc3)c12 ... 46 to 75%
16) Cc1c(-c2ccn(C(C)C)n2)sc2nc(-c3nccn3C)nc(NCCN3CCS(=O)(=O)CC3)c12 ... 46 to 75%
17) Cc1c(-c2ccn(C(C)C)n2)sc2nc(-c3nccn3C)nc(NCCN3CCOCC3)c12 ... 76 to 100%
18) COCCn1ccnc1-c1nc(N[C@H]2C[C@@H](OC)C2)c2c(-c3ccccc3)c(-c3ccn(C)n3)sc2n1 ... 76 to 100%
19) CO[C@@H]1CC[C@H](Nc2nc(-c3nccn3C)nc3sc(-c4ccn(C(C)C)n4)c(-c4ccccc4)c23)C1 (single isomer, unassigned) ... 46 to 75%
20) COCCOc1nc(-c2nccn2C)nc2sc(-c3ccn(C(C)C)n3)c(C)c12 ... 1 to 25%
21) COCCn1c(-c2nccn2C)nc2sc(-c3ccn(C(C)C)n3)c(C)c2c1=O ... 46 to 75%
22) COc1cccc(-c2sc3nc(-c4nccn4C)nc(N[C@@H]4CC[C@@H](OC)C4)c3c2C)c1F (racemic) ... 26 to 45%
23) COc1nccc(-c2sc3nc(-c4nccn4C)nc(N[C@H]4C[C@H](OC)C4)c3c2-c2ccccc2)c1F ... 26 to 45%
24) COc1cccc(-c2sc3nc(-c4nccn4C)nc(NC4CCC(OC)C4)c3c2C)c1F (racemic) ... 76 to 100%
25) CO[C@H]1CC[C@@H](Nc2nc(-c3nccn3C)nc3sc(-c4ccn(C(C)C)n4)c(C)c23)C1 (racemic) ... 46 to 75%
26) COc1cc(-c2sc3nc(-c4nccn4C)nc(N[C@H]4C[C@H](OC)C4)c3c2-c2ccccc2)ccn1 ... 26 to 45%
27) Cc1c(-c2ccn(C(C)C)n2)sc2nc(-c3nccn3C)nc(NCC3CCCO3)c12 (racemic) ... 76 to 100%
28) COc1cccc(-c2sc3nc(-c4nccn4C)nc(N[C@H]4C[C@H](OC)C4)c3c2-c2ccccc2)c1F ... 46 to 75%
29) COc1cc(Nc2nc(-c3nccn3C)nc3sc(-c4ccn(C(C)C)n4)c(C)c23)ncn1 ... 46 to 75%
30) COc1cc(-c2sc3nc(-c4nccn4C)nc(N[C@@H]4CC[C@@H](OC)C4)c3c2-c2ccccc2)ccn1 (racemic) ... 46 to 75%
